# Test system: BDF1 mice, P388 leukemia ip, median survival T/C
# testProtocol: NCI In Vivo Anticancer Drug Screen. Data for tumor model P388 Leukemia (intraperitoneal) in B6D2F1 (BDF1) mice
# measurementSetup: endpoint: median survival time; dose: 200.0 mg/kg/injection; schedule: Q04DX002 (ip); vehicle: saline with Tween-80; higher = longer survival
Toxic doses and inconclusive results are not listed.
measurementType: T/C

[
  {
    "molecule": "Cc1cc(N(C)C)c(C=O)c(C)c1C=O",
    "measurementType": "T/C",
    "valueMeasured": "110 % of control"
  },
  {
    "molecule": "CC(C(=O)O)S(=O)(=O)c1ccccc1 (stereo unspecified)",
    "measurementType": "T/C",
    "valueMeasured": "102 % of control"
  },
  {
    "molecule": "Cc1ccc(N)c(CSc2ccccc2)c1",
    "measurementType": "T/C",
    "valueMeasured": "98 % of control"
  },
  {
    "molecule": "CSC1C(=O)Nc2c1cccc2[N+](=O)[O-] (stereo unspecified)",
    "measurementType": "T/C",
    "valueMeasured": "99 % of control"
  },
  {
    "molecule": "COC(=O)C(C(=O)OC)=C1CS(=O)(=O)C1",
    "measurementType": "T/C",
    "valueMeasured": "101 % of control"
  }
]

Next item in the queue.
BDF1 mice, P388 leukemia ip, median survival T/C data for `CSc1c(C)[nH]c2c(C)cccc12` ; its T/C: 105 % of control

Numbers sourced from PubChem BioAssay AID328.
